biological target: HLA-B*08:01; assay: IEDB peptide-MHC binding, purified MHC/direct/fluorescence; filed as Kd, often an IC50 or EC50 that approximates it; bounds were set here for any values at or beyond the usual limits of such assays; conditions: source organism: dengue virus type 1
Readout Kind: Kd (µM)
Give bare numbers, in µM.

Some sequences with known Kd results, for comparison:
• YFHRRDLRL = 0.052
• RKKLRPRWL = 16.9

Checklist item: Kd tested on HLA-B*08:01, entry LAKRFSKGL , value? 4.48

---

target: HLA-B*15:01; assay: IEDB peptide-MHC binding, purified MHC/direct/fluorescence; filed as Kd, often an IC50 or EC50 that approximates it; bounds were set here for any values at or beyond the usual limits of such assays; conditions: source organism: dengue virus type 2
Readout Kind: pKd
Answers are plain numbers, as −log10 of the molar value.

* TLYAVATTF | 6.88

Moving on to the next sequence.
Entry under review: KLQLKGMSY . Reported pKd? 6.95

---

target: HLA-B*27:05; test: IEDB peptide-MHC binding, purified MHC/direct/fluorescence; filed as Kd, often an IC50 or EC50 that approximates it; bounds were set here for any values at or beyond the usual limits of such assays; conditions: source organism: Yellow fever virus
Readout Kind: Kd

Known results for sequences:
• KRVVASLMR = 107 nM
• SRLTYQWHK = 16 nM
• SRLLMRRMR = 295 nM

Okay, now this sequence:
Which Kd value belongs to YRNALSMMP ? ≥ 20000 nM

---

biological target: HLA-A*03:01; experiment: IEDB peptide-MHC binding, purified MHC/direct/fluorescence; filed as Kd, often an IC50 or EC50 that approximates it; bounds were set here for any values at or beyond the usual limits of such assays; settings: source organism: dengue virus type 3
Readout Kind: pKd
Give bare numbers, as −log10 of the molar value.

- KTFDTEYQK: 6.70

# batch size: 2; output pKd per entry
1. TVMDIISRK
2. SYYCAGLKK

1: 7.52; 2: 5.67

---

biological target: HLA-A*24:03; assay: IEDB peptide-MHC binding, purified MHC/direct/fluorescence; filed as Kd, often an IC50 or EC50 that approximates it; bounds were set here for any values at or beyond the usual limits of such assays; conditions: source organism: Yellow fever virus
t if Kd is below 40 nM. f if not; exact matches included in f.

Worked examples follow.
• VYMDAVFEY = f
• MWHVTRGAF = t
• WFYDNDNPY = f
• YYAFVGVMY = t
• VMGDAAWDF = f
• MYMALIAAF = t
• RWFVRNPFF = t
• AFHGLDVKF = t

Hello, I'm reviewing records and need to know if Kd of LVGAAIHPF is below 40 nM. Could you check? f

---

target: HLA-B*08:01; experiment: IEDB peptide-MHC binding, purified MHC/direct/fluorescence; filed as Kd, often an IC50 or EC50 that approximates it; bounds were set here for any values at or beyond the usual limits of such assays; conditions: source organism: Yellow fever virus
Readout Kind: Kd (nM)
Answers are plain numbers, in nM.

• YFHKRDMRL = 60
• EVRLATMLF = 1750
• SCRVKLSAL = 558
• HLKRLWKML = 16

Turning now to a further sequence:
Value lookup for Kd; key = GSRAYRNAL 694

Value source: the Immune Epitope Database (IEDB)
